Below, each of the molecules is paired with its reported melting point value.

- Cc1n[nH]c2c1C(c1ccc(-c3ccncc3)cc1)C(C#N)=C(N)O2 (stereo not shown): 232 to 234 °C
- Cc1cc(-c2ccc(C3C(C#N)=C(N)Oc4[nH]nc(C)c43)cc2)cnc1F (stereo not shown): 268 to 269 °C
- Cc1cc(-c2cccc(C3C(C#N)=C(N)Oc4[nH]nc(C)c43)c2)cnc1F (stereo not shown): 214 to 215 °C
- Cc1cc(-c2cccc(C3C(C#N)=C(N)Oc4[nH]nc(C)c43)c2)cnc1Cl (stereo not shown): 212 to 214 °C
- Cc1n[nH]c2c1C(c1ccc(-c3cncnc3)cc1)C(C#N)=C(N)O2 (stereo not shown): 196 to 198 °C
- Cc1nn(-c2ccc(Cl)cc2)c2c1C(c1cccc(-c3cncnc3)c1)C(C#N)=C(N)O2 (stereo not shown): 242 to 243 °C

Continue with the next molecule.
Q) For Cc1n[nH]c2c1C(c1cccc(-c3ccncc3)c1)C(C#N)=C(N)O2 (stereo not shown) , what is its reported melting point?
A) 245 to 247 °C

* * *

Below, each of the compounds is paired with its reported IC50 value.
Test system: MCF-10A cells
Test: Cytotoxicity to normal breast cells, Alamar Blue, MCF-10A
Assay type: cell-based
Conditions: Homo sapiens, 72 h; MCF-10A normal breast cells, 2% FBS medium, 3 days
Return type: number; implicit unit µM.

- Cc1n[nH]c2c1C(c1cccc(-c3ccncc3)c1)C(C#N)=C(N)O2 (stereo not shown): 88.2

Q) For Cc1cc(-c2cccc(C3C(C#N)=C(N)Oc4[nH]nc(C)c43)c2)cnc1F (stereo not shown) , what is its reported IC50?
A) 90.5

* * *

Tested on: BT-474 cells
Assay: Breast cancer cell proliferation, Alamar Blue, BT-474
Assay type: cell-based
Settings: Homo sapiens, 72 h, 2% FBS medium, 3 days
Below, each of the compounds is paired with its reported IC50 value.
Return type: number; implicit unit µM.

* Cc1n[nH]c2c1C(c1cccc(-c3ccncc3)c1)C(C#N)=C(N)O2 (stereo not shown) | 21.3
* Cc1n[nH]c2c1C(c1ccc(-c3ccncc3)cc1)C(C#N)=C(N)O2 (stereo not shown) | 50.2
* Cc1cc(-c2cccc(C3C(C#N)=C(N)Oc4[nH]nc(C)c43)c2)cnc1F (stereo not shown) | 23.7

Continue with the next compound.
Q) For Cc1cc(-c2ccc(C3C(C#N)=C(N)Oc4[nH]nc(C)c43)cc2)cnc1F (stereo not shown) , what is its reported IC50?
A) 15.2
